- assayMethodText: logP by HPLC on reversed-phase column (C 18), EEC Directive 79/831 Annex V.A8
- Assay type: physicochemical
- conditionContext: HPLC reversed-phase C 18; 40° C.; 0.1% aqueous formic acid and acetonitrile, linear gradient 10% to 90% acetonitrile
- Method: Temperature: 40° C.; Mobile phases: 0.1% aqueous formic acid and acetonitrile; linear gradient from 10% acetonitrile to 90% acetonitrile. Calibration was carried out using unbranched alkan-2-ones (comprising 3 to 16 carbon atoms) with known logP values (determination of the logP values by the retention times using linear interpolation between two successive alkanones).
Each item that follows carries a reported log p (HCOOH).

smilesRepresentation	log p (HCOOH)
CCN(C)C=Nc1cc(C)c(-c2ccc(Cl)cc2C)cc1C	2.24
CCN(C)C=Nc1ccc(-c2ccc(OCc3ccccc3)cc2)cc1C(F)(F)F	2.43
CCN(C)C=Nc1ccc(-c2ccc(C(F)(F)F)cc2)cc1C(F)(F)F	2.54
CCN(C)C=Nc1cc(C)c(-c2ccc(C#N)cc2)cc1C	1.54
CCc1cc(-c2ccc(C(C)=NOC)cc2)ccc1N=CN(C)CC	2.19
CCN(C)C=Nc1ccc(-c2ccc(OC)c(OC)c2)cc1F	1.41
CCc1cc(-c2ccc(Cl)c(C(F)(F)F)c2)ccc1N=CN(C)CC	2.39
CCN(C)C=Nc1ccc(-c2cccc(Cl)c2)cc1C	2.01
CCN(C)C=Nc1ccc(-c2ccc(OC)cc2)cc1F	1.59

---

- assayMethodText: logP by HPLC on reversed-phase column (C 18), EEC Directive 79/831 Annex V.A8
- Type: physicochemical
- conditionContext: HPLC reversed-phase C 18; 40° C.; 0.1% aqueous formic acid and acetonitrile, linear gradient 10% to 90% acetonitrile

molecule	log p (HCOOH)
CCN(C)C=Nc1ccc(-c2ccc(F)c(Cl)c2)cc1C	2.00
CCN(C)C=Nc1cc(C)c(-c2ccc(OCc3ccccc3)cc2)cc1C	2.55
CCN(C)C=Nc1cc(C)c(-c2ccc(Cl)c(F)c2)cc1C	2.32
CCN(C)C=Nc1ccc(-c2ccc(OC)c(C)c2)cc1Cl	1.86
CCN(C)C=Nc1cc(OC)c(-c2ccc(C)cc2)cc1OC	1.89
CCN(C)C(C)=Nc1cc(C)c(-c2ccc(C(C)(C)C)cc2)cc1C	2.77
CCN(C)C=Nc1cc(C)c(-c2ccc(C(C)(C)C)c(Br)c2)cc1C	3.13
CCN(C)C=Nc1ccc(-c2ccc(F)c(C)c2)cc1C(F)(F)F	2.20
C=CCN(C)C=Nc1cc(C)c(-c2ccc(C(F)(F)F)c(Cl)c2)cc1C	2.70
CCC(C)c1ccc(-c2cc(C)c(N=CN(C)CC)cc2C)cc1 (stereo not shown)	2.92
CCN(C)C=Nc1ccc(-c2ccc(F)c(F)c2)cc1F	1.68
CCc1cc(-c2cc(OC)c(OC)c(OC)c2)ccc1N=CN(C)CC	1.69
CCN(C)C=Nc1cc(C)c(-c2cccc3ccccc23)cc1C	2.13
CCN(C)C=Nc1ccc(-c2ccc(F)cc2)cc1F	1.50
CCN(C)C=Nc1ccc(-c2ccc(C=NOC)cc2)cc1C(F)(F)F	2.01
C=CCN(C)C=Nc1cc(C)c(-c2ccc([Si](C)(C)C)cc2)cc1C	3.08
CCN(C)C(S)=Nc1cc(C)c(-c2ccc(C(C)(C)C)cc2)cc1C	4.58
CCN(C)C=Nc1cc(C)c(-c2ccc(F)c(C)c2)cc1C	2.08
CCN(C)C=Nc1ccc(-c2ccc(OCc3ccccc3)cc2)cc1C	2.46
CCN(C)C=Nc1ccc(-c2ccc(Cl)c(C(F)(F)F)c2)cc1C	2.28
CCN(C)C=Nc1ccc(-c2ccc(C=NOC)cc2)cc1C	1.94
CCN(C)C=Nc1ccc(-c2ccc(OC)c(OC)c2)cc1C	1.49
CCN(C)C=Nc1ccc(-c2ccc(C(F)(F)F)cc2)cc1Cl	1.99
CCN(C)C=Nc1cc(C)c(-c2ccc(F)c(F)c2F)cc1C	2.32
Cc1cc(-c2ccc(C(C)(C)C)cc2)c(C)cc1N=CN(C)C(C)C	2.77
CCc1cc(-c2ccc(OC)cc2)ccc1N=CN(C)CC	1.90
CCN(C)C=Nc1ccc(-c2ccc(C#N)cc2)cc1C	1.54
CCN(C)C=Nc1ccc(-c2ccc(C(C)=NOC)cc2)cc1Cl	2.00

---

- assayMethodText: logP by HPLC on reversed-phase column (C 18), EEC Directive 79/831 Annex V.A8
- Assay type: physicochemical
- conditionContext: reversed-phase HPLC column (C 18); HPLC reversed-phase C 18; 40° C.; 0.1% aqueous formic acid and acetonitrile, linear gradient 10% to 90% acetonitrile; read-out: log p (HCOOH)

compound	chromatographic logP
CCN(C)/C=N/c1cc(C)c(-c2ccc(C(C)(C)C)cc2)cc1C [Compound 8]	2.67
Cc1cc(-c2ccc(C(C)(C)C)cc2)c(C)cc1N=C1CCCCN1 [Compound 121]	2.6

---

- assayMethodText: logP by HPLC on reversed-phase column (C 18), EEC Directive 79/831 Annex V.A8
- Format: physicochemical
- conditionContext: HPLC reversed-phase C 18; 40° C.; 0.1% aqueous formic acid and acetonitrile, linear gradient 10% to 90% acetonitrile
Cut-off 2 on log p (HCOOH), inclusive. At or above means y; below means n.

compound	answerLabel
CCN(C)C=Nc1ccc(-c2ccc(C(C)(C)C)cc2)cc1C(F)(F)F [Compound 2]	y
CCN(C)C=Nc1ccc(-c2ccc(OCc3ccccc3)cc2)cc1Cl [Compound 72]	y
CCN(C)C=Nc1cc(C)c(-c2ccc(C)c(Cl)c2)cc1C [Compound 146]	y
CCN(C)C=Nc1cc(C)c(-c2ccc(S(=O)(=O)N(C)C)cc2)cc1C [Compound 173]	n

---

Listing: log p (HCOOH) of selected molecules
- assayMethodText: logP by HPLC on reversed-phase column (C 18), EEC Directive 79/831 Annex V.A8
- Assay type: physicochemical
- conditionContext: HPLC reversed-phase C 18; 40° C.; 0.1% aqueous formic acid and acetonitrile, linear gradient 10% to 90% acetonitrile

smilesRepresentation	log p (HCOOH)
CCc1cc(-c2ccc(Oc3ccccc3)cc2)ccc1N=CN(C)CC	2.32
CCN(C)C=Nc1cc(C)c(-c2ccc(OC(C)C)c(Cl)c2)cc1C	2.62
CCN(C)C=Nc1cc(C)c(-c2ccc([Si](C)(C)C)cc2)cc1C	2.98
CC(C)N(C)C=Nc1ccc(-c2ccc(OC(F)(F)F)cc2)c(Cl)c1	2.42
CCN(C)C=Nc1ccc(-c2ccc(C(C)=NOC)cc2)cc1C(F)(F)F	2.24
CCN(C)C=Nc1cc(C)c(-c2ccc(C(F)(F)F)c(Cl)c2)cc1C	2.59
CCCN(C)C=Nc1cc(C)c(-c2ccc(C(F)(F)F)c(Cl)c2)cc1C	2.69
COc1ccc(-c2cc(OC)c(N=CN(C)C(C)C)cc2OC)cc1Cl	1.95
CCN(C)C=Nc1ccc(-c2ccc(F)c(C)c2)cc1Cl	2.10
CCN(C)C=Nc1cc(C)c(-c2ccccc2)cc1C	1.77
CCN(C)C=Nc1cc(C#N)c(-c2ccc(C(C)(C)C)cc2)cc1C	2.21
CCN(C)C=Nc1ccc(-c2ccc(C=NOC)cc2)cc1Cl	1.87
CCN(C)C=Nc1cc(C)c(-c2ccc(C)cc2)cc1C	2.01
Cc1cc(-c2ccc(C(C)C)cc2)c(C)cc1N=CN1CCCCC1	2.60
CCN(C)C=Nc1cc(C)c(-c2ccc(F)cc2)cc1C	1.95
CCN(C)C=Nc1ccc(-c2ccc(OC)cc2)cc1C(F)(F)F	1.78
CCc1cc(-c2ccc(Cl)c(F)c2)ccc1N=CN(C)CC	2.31
CCN(C)C=Nc1ccc(-c2ccc(F)c(F)c2)cc1Cl	1.83
CCN(C)C=Nc1cc(C)c(-c2ccc(C(F)(F)F)cc2)cc1C	2.19

---

- assayMethodText: logP by HPLC on reversed-phase column (C 18), EEC Directive 79/831 Annex V.A8
- Type: physicochemical
- conditionContext: HPLC reversed-phase C 18; 40° C.; 0.1% aqueous formic acid and acetonitrile, linear gradient 10% to 90% acetonitrile
endpointLabel: log p (HCOOH)

smilesRepresentation	valueObserved
CCN(C)C=Nc1ccc(-c2ccc(Oc3ccccc3)cc2)cc1Cl	2.45
CCCN(C)C=Nc1cc(C)c(-c2ccc([Si](C)(C)C)cc2)cc1C	3.10
Cc1ccc(-c2cc(C)c(N=CN3CCCC3)cc2C)cc1Cl	2.37
CCN(C)C=Nc1cc(C)c(-c2ccc(C3CCCC3)cc2)cc1C	2.94
CCN(C)C=Nc1cc(C)c(-c2ccc(C(C)=NOC)cc2)cc1C	2.24

---

- assayMethodText: logP by HPLC on reversed-phase column (C 18), EEC Directive 79/831 Annex V.A8
- Format: physicochemical
- conditionContext: HPLC reversed-phase C 18; 40° C.; 0.1% aqueous formic acid and acetonitrile, linear gradient 10% to 90% acetonitrile
Readings of log p (HCOOH) for the listed molecules
endpointLabel: log p (HCOOH)

smilesRepresentation	valueObserved
CCN(C)C=Nc1cc(C)c(-c2ccc(Cl)c(Cl)c2)cc1C	2.27
CCN(C)C=Nc1cc(C)c(-c2ccc(Br)cc2)cc1C	2.20
CCN(C)C=Nc1cc(C)c(-c2ccc(OC(C)C)c(F)c2)cc1C	2.37
CCN(C)C=Nc1cc(C)c(-c2ccc(Cl)cc2)cc1C	2.18
CCN(C)C=Nc1ccc(-c2ccc(F)c(F)c2)cc1C	1.89
CCN(C)C=Nc1ccc(-c2ccc(Cl)c(Cl)c2)cc1C(F)(F)F	2.57
CCc1cc(-c2ccc(Cl)c(Cl)c2)ccc1N=CN(C)CC	2.37
CCN(C)C=Nc1ccc(-c2ccc(C(C)(C)C)cc2)cc1C	2.67
Cc1cc(-c2ccc(C(C)(C)C)cc2)c(C)cc1N=C1CCCN1	2.53
